Cited source for all entries: patent US20210230570

# System name: Factor X (FX), P00742
# Sequence (P00742 whole entry, looked up): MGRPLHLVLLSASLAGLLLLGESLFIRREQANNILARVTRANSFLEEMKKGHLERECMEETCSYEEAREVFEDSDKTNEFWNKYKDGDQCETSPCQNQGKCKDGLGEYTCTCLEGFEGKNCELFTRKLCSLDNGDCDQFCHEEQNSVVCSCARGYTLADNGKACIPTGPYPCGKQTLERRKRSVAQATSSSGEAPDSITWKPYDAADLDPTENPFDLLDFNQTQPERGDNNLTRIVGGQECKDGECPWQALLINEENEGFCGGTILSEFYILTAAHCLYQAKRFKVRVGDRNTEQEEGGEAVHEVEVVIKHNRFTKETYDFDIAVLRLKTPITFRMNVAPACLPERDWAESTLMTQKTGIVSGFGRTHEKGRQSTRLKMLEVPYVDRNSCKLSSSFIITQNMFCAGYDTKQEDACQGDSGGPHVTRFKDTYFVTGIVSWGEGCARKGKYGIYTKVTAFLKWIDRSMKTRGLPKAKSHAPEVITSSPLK
kcat/KM reference
Report as a plain number; the unit M⁻¹ s⁻¹ is understood.

Some proteins with known kcat/KM results, for comparison:
FIXa-Y155F/R318Y/T343R/R403E (protein) chain 1: YNSGKLEEFVQGNLERECMEEKCSFEEAREVFENTERTTEFWKQYVDGDQCESNPCLNGGSCKDDINSYECWCPFGFEGKNCELDVTCNIKNGRCEQFCKNSADNKVVCSCTEGYRLAENQKSCEPAVPFPCGRVSVSQTSKLTR chain 2: VVGGEDAKPGQFPWQVVLNGKVDAFCGGSIVNEKWIVTAAHCVETGVKITVVAGEHNIEETEHTEQKRNVIRIIPHHNYNAAINKYNHDIALLELDEPLVLNSYVTPICIADKEYTNIFLKFGSGYVSGWGRVFHKGYSALVLQYLRVPLVDRATCLRSTKFRIYNNMFCAGFHEGGRDSCQGDSGGPHVTEVEGTSFLTGIISWGEECAMKGKYGIYTKVSEYVNWIKEKTKLT | 7.1e+07
FIXa-Y155F/K247N/N249S/R338E/R403E (protein) chain 1: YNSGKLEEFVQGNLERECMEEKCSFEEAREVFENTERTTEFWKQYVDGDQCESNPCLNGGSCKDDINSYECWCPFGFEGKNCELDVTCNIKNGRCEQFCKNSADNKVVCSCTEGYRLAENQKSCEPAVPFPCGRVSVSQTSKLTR chain 2: VVGGEDAKPGQFPWQVVLNGKVDAFCGGSIVNEKWIVTAAHCVETGVKITVVAGEHNIEETEHTEQNRSVIRIIPHHNYNAAINKYNHDIALLELDEPLVLNSYVTPICIADKEYTNIFLKFGSGYVSGWGRVFHKGRSALVLQYLRVPLVDRATCLESTKFTIYNNMFCAGFHEGGRDSCQGDSGGPHVTEVEGTSFLTGIISWGEECAMKGKYGIYTKVSEYVNWIKEKTKLT | 1.4e+08
FIXa-Y155F/K247N/N249S/R338E/E410N (protein) chain 1: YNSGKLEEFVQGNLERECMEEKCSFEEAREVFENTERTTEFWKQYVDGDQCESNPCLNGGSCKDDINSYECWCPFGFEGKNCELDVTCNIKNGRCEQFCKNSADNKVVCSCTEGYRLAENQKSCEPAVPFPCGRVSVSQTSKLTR chain 2: VVGGEDAKPGQFPWQVVLNGKVDAFCGGSIVNEKWIVTAAHCVETGVKITVVAGEHNIEETEHTEQNRSVIRIIPHHNYNAAINKYNHDIALLELDEPLVLNSYVTPICIADKEYTNIFLKFGSGYVSGWGRVFHKGRSALVLQYLRVPLVDRATCLESTKFTIYNNMFCAGFHEGGRDSCQGDSGGPHVTEVEGTSFLTGIISWGEECAMKGKYGIYTKVSRYVNWIKNKTKLT | 4.7e+08

## Input Fill blank: measured kcat/KM of the protein FIXa-K228N/K247N/N249S/R318Y/T343R/R403E/E410N (protein) chain 1: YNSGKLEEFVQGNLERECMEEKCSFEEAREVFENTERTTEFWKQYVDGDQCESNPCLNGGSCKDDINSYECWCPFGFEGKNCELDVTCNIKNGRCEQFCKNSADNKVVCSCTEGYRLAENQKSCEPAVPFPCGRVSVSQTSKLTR chain 2: VVGGEDAKPGQFPWQVVLNGKVDAFCGGSIVNEKWIVTAAHCVETGVNITVVAGEHNIEETEHTEQNRSVIRIIPHHNYNAAINKYNHDIALLELDEPLVLNSYVTPICIADKEYTNIFLKFGSGYVSGWGRVFHKGYSALVLQYLRVPLVDRATCLRSTKFRIYNNMFCAGFHEGGRDSCQGDSGGPHVTEVEGTSFLTGIISWGEECAMKGKYGIYTKVSEYVNWIKNKTKLT is ____.
## Output 7.1e+07
